Cited source: patent US20110046227A1

- Assay overview: Pharmacokinetic study in healthy adults of single vs. multiple oral doses of colchicine tablets (Example 1)
- Type: in vivo, human
- Reported conditions: human, plasma, po, 0.6 mg, single oral dose colchicine 0.6 mg, healthy adults N=13, mean; read-out: T1/2, MEAN (converted)
Measured parameter: half-life (h)
Express the result in h but write the number alone.

Task: Quick check: half-life of COc1cc2c(c(OC)c1OC)-c1ccc(OC)c(=O)cc1[C@@H](NC(C)=O)CC2 ?
Result: 4.95

* * *

- Assay overview: Pharmacokinetic study in healthy adults of single vs. multiple oral doses of colchicine tablets (Example 1);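 also: Single-dose and multiple-dose periods given to the same subjects, with a 14-day washout between the two periods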
- Type: in vivo, human
- Reported conditions: human, plasma, po, 0.6 mg, single oral dose colchicine 0.6 mg, healthy adults N=13, plasma, mean; read-out: AUC0-inf, MEAN
Measured parameter: AUC(0-inf)
In your response, put the unit directly after the numeric value.

Task: Query: AUC(0-inf); subject: COc1cc2c(c(OC)c1OC)-c1ccc(OC)c(=O)cc1[C@@H](NC(C)=O)CC2
Result: 0.0123 µg·h/mL
